Parameter displacement: see the listing below.
target: Bcl-2-like protein 10 (Homo sapiens) (UniProt Q9HD36); experiment: displacers of TR3 peptide from Bcl-B, primary screen, selectivity assay for Bfl-1 inhibitor project, biochemical, fluorescence polarization, FITC-TR3 peptide (AID 748); conditions: FP displacement of FITC-TR3 peptide from Bcl-B; at 20 µM; stronger effect = higher value;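 note: plate controls were wells without compound for no effect and wells lacking Bcl-B protein for full effect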
Out of some 96,000 compounds screened, about 100 (0.1%) were called active. This excerpt belongs to a sample that is enriched for actives. Results with a measured potency or affinity are listed apart.

Can you share its displacement? I mean this molecule: Cc1ccc(C)c(NC(=O)C2C(c3ccccc3)C2(Cl)Cl)c1 (centres undefined) -7.6% (inactive)

What would you report for CCOC(=O)C1C(C#N)=C(N)OC(C)=C1c1ccncc1 (centres undefined) ? 11.4% (inactive)

More entries:
What value of displacement has been recorded for this entry: O=CNCCCc1nc2ccccc2n1Cc1cccc2ccccc12 1.8% (inactive)

Try this molecule too: Cc1cc(C(F)F)n2ncc(C(=O)N3CCC(C(N)=O)CC3)c2n1 10.5% (inactive)
